gcPBM binding intensity (ln): recorded values
# Test system: PfAP2-LT AP2 domain (GST-tagged)
# procedure details: gcPBM binding intensity (ln(normalized median fluorescence intensity)); higher = stronger DNA binding
Over roughly 25,000 sequences, “ln(normalized median fluorescence intensity)” has its median near 8.9; the highest 2% begin near 10. For the sample, the highest values were picked, then their nearest neighbours and some sequences at random.
Form rule: numeric answer, no unit written next to it.

# biosequence, gcPBM binding intensity (ln)
rows = [
    ("AGAACCATATATAAATGTACATGTTAATATGAATAA [XGTACX_site130]", 8.93),
    ("TTCTATTTTAATATCTGTACATAATAAAGATCCATT [XGTACX_site1142]", 8.46),
]

Turning to the following sequence.
Task: For the sequence TTCTATTCAAATGCAAAATTATTAAATAAAAAATAA [GTGCAC_negctrl_site708] , give its reported gcPBM binding intensity (ln).
Output: 8.31
